These data points were gathered from patent US20050038072A1.

Where a name gives a salt, the structure may show the parent alone.
property-label: melting point

The following compounds have reported results that may help.
>  <compound>
O=C1CCN(Cc2cc([N+](=O)[O-])ccc2O)CC1C(c1ccccc1)c1ccccc1 (stereo not shown)

>  <melting point>
177 to 178 °C

$$$$
>  <compound>
COc1ccc2ccccc2c1CN1CCC(=O)C(C(c2ccc(F)cc2)c2ccc(F)cc2)C1 (stereo not shown)

>  <melting point>
125 to 126 °C

$$$$

Task: # query: melting point of entry O=C1CNCCC1C1c2ccccc2CCc2ccccc21 (stereo not shown) (as salt: hydrochloride)
Output: 196 to 198 °C (dec.)

Task: Tell me the measured melting point of O=C1CN(Cc2ccccc2)CCC1C(c1ccc(F)cc1)c1ccc(F)cc1 (stereo not shown) (as salt: hydrochloride) , please.
Output: 177.5 to 179 °C

Task: Suppose we examine the compound O=C1CCN(Cc2ccccc2)CC1C(c1ccc(Cl)cc1)c1ccccc1Cl (stereo not shown) (as salt: hydrochloride) ; what melting point value has been reported?
Output: 190 to 191 °C

Task: // melting point lookup, key: COc1ccc(OC(F)(F)F)cc1CN1CCC(=O)C(C(c2ccccc2)c2ccccc2)C1 (stereo not shown) (as salt: hydrochloride)
Output: 174 to 175 °C

Task: Which melting point is listed for COc1ccc([N+](=O)[O-])cc1CN1CCC(=O)C(C(c2ccccc2)c2ccccc2)C1 (stereo not shown) ?
Output: 119 to 120 °C
